Test system: P. aeruginosa PAO581 (PAO1mucA25)
Assay: NIH drug library screen for inhibition of growth, mucoidy and PalgD-lacZ colour
Assay type: cell-based, Pseudomonas aeruginosa
Details: drug at 10 μM; PAO581 with pLP170-PalgD-lacZ on PIA + X-gal
Assay metric: Mucoidy 10 μM

// query Any idea what Mucoidy 10 μM came out for CCCCCCCCCOc1ccc2[nH]cc(CCN)c2c1 on P. aeruginosa PAO581 (PAO1mucA25)?
// result High

// query Which measured Mucoidy 10 μM belongs to CC[C@H]1OC(=O)[C@H](C)[C@@H](O[C@H]2C[C@@](C)(OC)[C@@H](O)[C@H](C)O2)[C@H](C)[C@@H](O[C@@H]2O[C@H](C)C[C@H](N(C)C)[C@H]2O)[C@](C)(OC)C[C@@H](C)C(=O)[C@H](C)[C@@H](O)[C@]1(C)O , tested on P. aeruginosa PAO581 (PAO1mucA25)?
// result High

// query Form: Entry = CN1CCN(c2c(F)cc3c(=O)c(C(=O)O)cn4c3c2SCC4)CC1 [Rufloxacin Monohydrate] | System = P. aeruginosa PAO581 (PAO1mucA25) | Mucoidy 10 μM = ____
// result High

----------
Tested on: P. aeruginosa PAO581 (PAO1mucA25)
Assay: NIH drug library screen for inhibition of growth, mucoidy and PalgD-lacZ colour
Type: cell-based, Pseudomonas aeruginosa
Settings: drug at 2 μM; PAO581 with pLP170-PalgD-lacZ on PIA + X-gal
Structures can show the parent of a compound that is named as a salt.
Assay metric: Mucoidy 2 μM

Solved entries:
// query Requested read-out: Mucoidy 2 μM. Entry: CC[C@H]1OC(=O)[C@H](C)[C@@H](O[C@H]2C[C@@](C)(OC)[C@@H](O)[C@H](C)O2)[C@H](C)[C@@H](O[C@@H]2O[C@H](C)C[C@H](N(C)C)[C@H]2O)[C@](C)(OC)C[C@@H](C)C(=O)[C@H](C)[C@@H](O)[C@]1(C)O
// result High

// query Tell me the measured Mucoidy 2 μM of CO[C@H]1/C=C/O[C@@]2(C)Oc3c(C)c(O)c4c(O)c(c(/C=N/N5CCN(C6CCCC6)CC5)c(O)c4c3C2=O)NC(=O)/C(C)=C\C=C\[C@H](C)[C@H](O)[C@@H](C)[C@@H](O)[C@@H](C)[C@H](OC(C)=O)[C@@H]1C , please.
// result High

// query Could you share which Mucoidy 2 μM value was measured for COc1c(N2C[C@@H]3CCCN[C@@H]3C2)c(F)cc2c(=O)c(C(=O)O)cn(C3CC3)c12 [Moxifloxacin Hydrochloride] ?
// result Reduced

// query Using the record for CO[C@H]1/C=C/O[C@@]2(C)Oc3c(C)c(O)c4c(c3C2=O)C2=NC3(CCN(CC(C)C)CC3)NC2=C(NC(=O)/C(C)=C\C=C\[C@H](C)[C@H](O)[C@@H](C)[C@@H](O)[C@@H](C)[C@H](OC(C)=O)[C@@H]1C)C4=O , report its Mucoidy 2 μM.
// result High

// query Which measured Mucoidy 2 μM value corresponds to CO[C@H]1/C=C/O[C@@]2(C)Oc3c(C)c(O)c4c(O)c(c5c(nc6cc(C)ccn65)c4c3C2=O)NC(=O)/C(C)=C\C=C\[C@H](C)[C@H](O)[C@@H](C)[C@@H](O)[C@@H](C)[C@H](OC(C)=O)[C@@H]1C ?
// result Reduced

Continuing:
// query I have this compound here, CCCCCCNC(=O)n1cc(F)c(=O)[nH]c1=O , and I need its recorded Mucoidy 2 μM.
// result High
